Quick reference: molar heat capacity at constant pressure of the listed items.
# Method Notes: molar heat capacity at constant pressure
# Measurement Conditions: 323.15 K; 101.33 kPa; Crystal; Small sample (50 mg) DSC
Numeric only. Scale: J/K/mol

>  <Smiles>
O=C[C@H](O)[C@@H](O)[C@H](O[C@H]1O[C@H](CO)[C@@H](O[C@H]2O[C@H](CO)[C@@H](O)[C@H](O)[C@H]2O)[C@H](O)[C@H]1O)[C@H](O)CO

>  <Quantity Kind>
molar heat capacity at constant pressure

>  <U>
J/K/mol

>  <Meas Value>
698.2

$$$$

State the recorded molar heat capacity at constant pressure for this entry: OC[C@H]1O[C@@H]2O[C@H]3[C@H](O)[C@@H](O)[C@@H](O[C@H]4[C@H](O)[C@@H](O)[C@@H](O[C@H]5[C@H](O)[C@@H](O)[C@@H](O[C@H]6[C@H](O)[C@@H](O)[C@@H](O[C@H]7[C@H](O)[C@@H](O)[C@@H](O[C@H]1[C@H](O)[C@H]2O)O[C@@H]7CO)O[C@@H]6CO)O[C@@H]5CO)O[C@@H]4CO)O[C@@H]3CO 1259.3

* * *

# Method Notes: molar heat capacity at constant pressure
# Measurement Conditions: 323.15 K; 101.33 kPa; Crystal; Small sample (50 mg) DSC
Quantity Kind: molar heat capacity at constant pressure (J/K/mol)

See these solved cases before continuing.
>  <Compound>
O=C[C@H](O)[C@@H](O)[C@@H](O)[C@H](O)CO [(+)-galactose]

>  <U>
J/K/mol

>  <Meas Value>
235.6

$$$$
>  <Compound>
O=CC[C@H](O)[C@H](O)CO

>  <U>
J/K/mol

>  <Meas Value>
197.4

$$$$

I = OC[C@H]1O[C@H](O)[C@H](O)[C@@H](O)[C@@H]1O
II = O.OC[C@H]1O[C@@H](O[C@H]2[C@H](O)[C@@H](O)[C@@H](O)O[C@@H]2CO)[C@H](O)[C@@H](O)[C@H]1O [α-D-lactose hydrate]
Of I and II , whose reported molar heat capacity at constant pressure is the larger number? Output the label that corresponds to your choice. II
(II: 459.8 J/K/mol, I: 240.5 J/K/mol)

* * *

# Method Notes: molar heat capacity at constant pressure
# Measurement Conditions: 348.15 K; 101.33 kPa; Crystal; Small sample (50 mg) DSC
Quantity Kind: molar heat capacity at constant pressure (J/K/mol)

>  <Compound>
O=C(CO)[C@@H](O)[C@H](O)[C@H](O)CO [D-fructose]

>  <molar heat capacity at constant pressure (J/K/mol)>
266.4

$$$$
>  <Compound>
O=C[C@H](O)[C@@H](O)[C@@H](O)[C@H](O)CO [(+)-galactose]

>  <molar heat capacity at constant pressure (J/K/mol)>
254.7

$$$$
>  <Compound>
OC[C@H]1O[C@@](CO)(O[C@H]2O[C@H](CO)[C@@H](O)[C@H](O)[C@H]2O)[C@@H](O)[C@@H]1O [D-sucrose]

>  <molar heat capacity at constant pressure (J/K/mol)>
506.7

$$$$
>  <Compound>
OC[C@H]1OC(O)C[C@@H](O)[C@@H]1O (stereo partly drawn) [2-deoxy-D-glucose]

>  <molar heat capacity at constant pressure (J/K/mol)>
233

$$$$

I = CC(=O)N[C@@H](C=O)[C@@H](O)[C@H](O)[C@H](O)CO [N-acetyl-D-glucosamine]
II = O.OC[C@H]1O[C@@H](O[C@H]2[C@H](O)[C@@H](O)[C@@H](O)O[C@@H]2CO)[C@H](O)[C@@H](O)[C@H]1O [α-D-lactose hydrate]
III = O=C[C@H](O)[C@@H](O)[C@H](O[C@H]1O[C@H](CO)[C@@H](O[C@H]2O[C@H](CO)[C@@H](O)[C@H](O)[C@H]2O)[C@H](O)[C@H]1O)[C@H](O)CO [maltotriose]
// ascending sort on recorded molar heat capacity at constant pressure I'd appreciate it if you listed the labels in the requested order. I, II, III

I = CO[C@H]1O[C@H](CO)[C@@H](O)[C@H](O)[C@H]1O [methyl-α-D-glucopyranoside]
II = OC[C@H]1O[C@@H](O[C@H]2[C@H](O)[C@@H](O)[C@H](O)O[C@@H]2CO)[C@H](O)[C@@H](O)[C@@H]1O [D-cellobiose]
Of I and II , whose reported molar heat capacity at constant pressure is the larger number? Output the label that corresponds to your choice. II

* * *

# Method Notes: molar heat capacity at constant pressure
# Measurement Conditions: 343.15 K; 101.33 kPa; Crystal; Small sample (50 mg) DSC
Quantity Kind: molar heat capacity at constant pressure (J/K/mol)

A = CO[C@H]1O[C@H](CO)[C@@H](O)[C@H](O)[C@H]1O [methyl-α-D-glucopyranoside]
B = O=C[C@H](O)[C@@H](O)[C@H](O[C@H]1O[C@H](CO)[C@@H](O[C@H]2O[C@H](CO)[C@@H](O)[C@H](O)[C@H]2O)[C@H](O)[C@H]1O)[C@H](O)CO
Of A and B , whose reported molar heat capacity at constant pressure is the larger number? Output the label that corresponds to your choice. B
(B: 753.8 J/K/mol, A: 302.9 J/K/mol)

* * *

# Method Notes: molar heat capacity at constant pressure
# Measurement Conditions: 303.15 K; 101.33 kPa; Crystal; Small sample (50 mg) DSC
Quantity Kind: molar heat capacity at constant pressure (J/K/mol)

See these solved cases before continuing.
>  <Compound>
OC[C@H]1O[C@@H]2O[C@H]3[C@H](O)[C@@H](O)[C@@H](O[C@H]4[C@H](O)[C@@H](O)[C@@H](O[C@H]5[C@H](O)[C@@H](O)[C@@H](O[C@H]6[C@H](O)[C@@H](O)[C@@H](O[C@H]7[C@H](O)[C@@H](O)[C@@H](O[C@H]1[C@H](O)[C@H]2O)O[C@@H]7CO)O[C@@H]6CO)O[C@@H]5CO)O[C@@H]4CO)O[C@@H]3CO

>  <Meas Value>
1164.1

$$$$
>  <Compound>
O=C[C@@H](O)[C@@H](O)[C@H](O)[C@H](O)CO

>  <Meas Value>
215

$$$$
>  <Compound>
O=C[C@H](O)[C@@H](O)[C@@H](O)[C@H](O)CO [(+)-galactose]

>  <Meas Value>
217.5

$$$$
>  <Compound>
CO[C@H]1O[C@H](CO)[C@@H](O)[C@H](O)[C@H]1O [methyl-α-D-glucopyranoside]

>  <Meas Value>
235.7

$$$$
>  <Compound>
O=C(CO)[C@@H](O)[C@H](O)[C@H](O)CO

>  <Meas Value>
233.3

$$$$

P = OC[C@H]1OC(O)C[C@@H](O)[C@@H]1O (stereo partly drawn)
Q = O.OC[C@H]1O[C@@H](O[C@H]2[C@H](O)[C@@H](O)[C@@H](O)O[C@@H]2CO)[C@H](O)[C@@H](O)[C@H]1O [α-D-lactose hydrate]
Between P and Q , which one has the lower reported molar heat capacity at constant pressure value? Output the label that corresponds to your choice. P

* * *

# Method Notes: molar heat capacity at constant pressure
# Measurement Conditions: 323.15 K; 101.33 kPa; Crystal; Small sample (50 mg) DSC
Quantity Kind: molar heat capacity at constant pressure (J/K/mol)

See these solved cases before continuing.
>  <Molecule>
OC[C@H]1O[C@@](CO)(O[C@H]2O[C@H](CO)[C@@H](O)[C@H](O)[C@H]2O)[C@@H](O)[C@@H]1O

>  <molar heat capacity at constant pressure (J/K/mol)>
466.2

$$$$
>  <Molecule>
O=C[C@@H](O)[C@@H](O)[C@H](O)[C@H](O)CO

>  <molar heat capacity at constant pressure (J/K/mol)>
234.5

$$$$
>  <Molecule>
CC(=O)N[C@@H](C=O)[C@@H](O)[C@H](O)[C@H](O)CO

>  <molar heat capacity at constant pressure (J/K/mol)>
292.7

$$$$
>  <Molecule>
OC[C@H]1O[C@@H]2O[C@H]3[C@H](O)[C@@H](O)[C@@H](O[C@H]4[C@H](O)[C@@H](O)[C@@H](O[C@H]5[C@H](O)[C@@H](O)[C@@H](O[C@H]6[C@H](O)[C@@H](O)[C@@H](O[C@H]7[C@H](O)[C@@H](O)[C@@H](O[C@H]8[C@H](O)[C@@H](O)[C@@H](O[C@H]1[C@H](O)[C@H]2O)O[C@@H]8CO)O[C@@H]7CO)O[C@@H]6CO)O[C@@H]5CO)O[C@@H]4CO)O[C@@H]3CO

>  <molar heat capacity at constant pressure (J/K/mol)>
1468.5

$$$$
>  <Molecule>
OC[C@H]1OC(O)C[C@@H](O)[C@@H]1O (some centres undefined)

>  <molar heat capacity at constant pressure (J/K/mol)>
213.6

$$$$
>  <Molecule>
CO[C@H]1O[C@H](CO)[C@@H](O)[C@H](O)[C@H]1O [methyl-α-D-glucopyranoside]

>  <molar heat capacity at constant pressure (J/K/mol)>
264.7

$$$$
>  <Molecule>
O=C(CO)[C@@H](O)[C@H](O)[C@H](O)CO

>  <molar heat capacity at constant pressure (J/K/mol)>
251.5

$$$$

a = O=C[C@H](O)[C@H](O)[C@H](O)CO
b = OC[C@H]1O[C@@H](O[C@H]2[C@H](O)[C@@H](O)[C@H](O)O[C@@H]2CO)[C@H](O)[C@@H](O)[C@@H]1O
Between a and b , which one has the lower reported molar heat capacity at constant pressure value? Output the label that corresponds to your choice. a
(a: 224.6 J/K/mol, b: 463.2 J/K/mol)
